Target: human GlyT1c transporter (Homo sapiens)
Construct: expressed in transfected cells; host or cells: CHO cells (recombinant; line hGlyT1c_5_CHO is named for the uptake assay)
Assay: Radioligand binding assay using recombinant CHO cell membranes expressing human GlyT1
Details: radioligand binding to human GlyT1c transporter-expressing membranes
READOUT_LABEL: Ki

Cn1cnc(S(=O)(=O)N2C[C@H](c3ccccc3)[C@H](Nc3ccccc3)C2)c1 (relative stereo) | ≤ 10 µM

Ask: Give Ki for Cc1nn(C(F)F)c(C)c1S(=O)(=O)N1C[C@@H](NC(=O)c2cccc(C(F)(F)F)c2Cl)[C@H](c2ccccc2)C1 (relative stereo) tested on human GlyT1c transporter (Homo sapiens).
Reply: ≤ 10 µM

Ask: Give Ki for Cn1cnc(S(=O)(=O)N2C[C@@H](NCc3ccc(F)cc3)[C@H](c3ccc(F)cc3)C2)c1 (relative stereo) tested on human GlyT1c transporter (Homo sapiens).
Reply: ≤ 0.1 µM

====

Target: human GlyT1c transporter (Homo sapiens, UniProt P48067)
Construct: expressed in transfected cells; host or cells: CHO cells (recombinant; line hGlyT1c_5_CHO is named for the uptake assay)
Assay: Radioligand binding assay using recombinant CHO cell membranes expressing human GlyT1
Conditions: radioligand binding to human GlyT1c transporter-expressing membranes
READOUT_LABEL: Ki

Answered cases to consult:
Cn1cnc(S(=O)(=O)N2C[C@H](OCC(=O)NCC(F)F)[C@@H](c3ccc(F)cc3)C2)c1 [Example 797] | ≤ 10 µM
Cc1cc(CN[C@H]2CN(S(=O)(=O)c3cn(C)cn3)C[C@@H]2c2ccccc2)sc1C [Example 455] | ≤ 0.1 µM
Cc1cccc(N[C@@H]2CN(S(=O)(=O)c3cn(C)cn3)C[C@H]2C2CCCOC2)c1 (relative stereo) [Example 781] | ≤ 10 µM

Now for a further molecule.
Ask: Give the reported Ki for this molecule. CCCNC(=O)[C@@H]1CN(S(=O)(=O)c2cn(C)cn2)C[C@H]1c1ccc(F)cc1 [Example 580]
Reply: ≤ 1 µM

====

Reported Ki values are given for each entry in this list.
Molecular target: human GlyT1c transporter (Homo sapiens, UniProt P48067)
Construct: expressed in transfected cells; host or cells: CHO cells (recombinant; line hGlyT1c_5_CHO is named for the uptake assay)
Sequence (P48067 1-706): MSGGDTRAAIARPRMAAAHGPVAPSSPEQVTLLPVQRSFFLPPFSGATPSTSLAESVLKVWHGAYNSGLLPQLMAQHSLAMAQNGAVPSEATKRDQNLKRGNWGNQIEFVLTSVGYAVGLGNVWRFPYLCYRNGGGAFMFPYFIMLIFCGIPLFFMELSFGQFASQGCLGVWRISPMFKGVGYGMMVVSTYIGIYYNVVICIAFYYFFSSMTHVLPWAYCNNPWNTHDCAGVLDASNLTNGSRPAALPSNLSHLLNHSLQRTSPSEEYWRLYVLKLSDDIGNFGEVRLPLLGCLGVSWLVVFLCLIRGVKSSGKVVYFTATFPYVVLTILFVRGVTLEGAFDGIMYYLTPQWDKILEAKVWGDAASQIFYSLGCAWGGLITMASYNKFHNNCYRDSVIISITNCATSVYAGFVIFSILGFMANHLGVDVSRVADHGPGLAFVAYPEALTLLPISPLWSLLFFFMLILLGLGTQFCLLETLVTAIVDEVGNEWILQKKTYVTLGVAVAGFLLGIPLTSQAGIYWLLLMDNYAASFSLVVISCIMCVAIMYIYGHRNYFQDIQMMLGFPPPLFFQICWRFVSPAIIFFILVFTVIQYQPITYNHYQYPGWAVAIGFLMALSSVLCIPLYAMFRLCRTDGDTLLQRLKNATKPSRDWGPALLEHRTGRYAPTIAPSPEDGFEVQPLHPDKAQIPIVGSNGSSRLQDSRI
Assay: Radioligand binding assay using recombinant CHO cell membranes expressing human GlyT1
Conditions: radioligand binding to human GlyT1c transporter-expressing membranes

Cn1cnc(S(=O)(=O)N2C[C@H](Nc3ccc(Cl)c(C(F)(F)F)c3)[C@@H](C3CCCO3)C2)c1 (stereo partly shown) | ≤ 1000 nM

Now for a further compound.
Ask: Give the reported Ki for this compound. COc1ccc(S(=O)(=O)N2C[C@@H](NC(=O)c3cc(Cl)cc(Cl)c3)[C@H](c3ccccc3)C2)cc1 (relative stereo)
Reply: > 10000 nM

Where do the numbers come from? From patent EP2970215B1.
